- test.summary: Plasma clearance in Sprague-Dawley rat at 1.0 mg/kg, iv or 3.0 mg/kg, po
- Type: ADME, organism-based
parameter.measured: clearance (mL/min/kg)
Quick reminder: number only, in mL/min/kg, skip the unit.

- smiles.structure: "O=C(NCc1nc2cccnc2n1C1(c2ccccc2)CC1)[C@@H](Cc1c(F)cccc1F)NC(=O)C1(C(F)(F)F)CC1"
  unit.of.measurement: "mL/min/kg"
  clearance: 4.2
- smiles.structure: "CC(C)(C)OC(=O)N[C@H](Cc1ccccc1C(F)(F)F)C(=O)NCc1nc2cccnc2n1C1(c2ccccc2)CC1"
  unit.of.measurement: "mL/min/kg"
  clearance: 3
- smiles.structure: "CC(C)(C)Cn1c(CNC(=O)[C@@H](Cc2ccccc2C(F)(F)F)NC(=O)OC(C)(C)C)nc2cccnc21"
  unit.of.measurement: "mL/min/kg"
  clearance: 64

Looking for the measured clearance of CC(C)(C)OC(=O)N[C@H](Cc1ccccc1C(F)(F)F)C(=O)NCc1nc2cccnc2n1CC(F)(F)F , can you help?
113

Now the compound CC(C)(C)OC(=O)N[C@H](Cc1ccccc1F)C(=O)NCc1nc2cccnc2n1C1(c2ccccc2)CC1
7.5

# repeat for O=C(NCc1nc2cccnc2n1C1(c2ccccc2)CC1)[C@@H](Cc1ccccc1Cl)NC(=O)C1(C(F)(F)F)CC1
9.3

Now consider CC(C)(C)OC(=O)N[C@H](Cc1ccccc1C(F)(F)F)C(=O)NCc1nc2cccnc2n1CC(F)(F)C(F)(F)F and answer again.
87

Item: O=C(NCc1nc2cccnc2n1C1(c2ccccc2)CC1)[C@@H](Cc1c(F)ccc(F)c1F)NC(=O)C1(C(F)(F)F)CC1
6.6

Next: CC(C)(C)OC(=O)N[C@H](Cc1ccccc1C(F)(F)F)C(=O)NCc1nc2cccnc2n1CC1CC1
114

Subsequent entry: C[C@H](c1ccccc1)n1c(CNC(=O)[C@@H](Cc2ccccc2C(F)(F)F)NC(=O)OC(C)(C)C)nc2cccnc21
22

----------
Measured clearance values are reported for all entries that follow.
- test.summary: Plasma clearance in Sprague-Dawley rat at 1.0 mg/kg, iv or 3.0 mg/kg, po
- Assay type: ADME, organism-based
Quick note: give the figure in mL/min/kg, leave out the unit.

Before answering, review these 2 worked examples.
- smiles.structure: "CC(C)(C)OC(=O)N[C@H](Cc1ccccc1C(F)(F)F)C(=O)NCc1nc2cccnc2n1C(C)(C)C"
  clearance [mL/min/kg]: 36
- smiles.structure: "CC(C)(C)OC(=O)N[C@H](Cc1ccccc1C(F)(F)F)C(=O)NCc1nc2cccnc2n1Cc1ccccc1"
  clearance [mL/min/kg]: 15

# next compound below
Would you kindly share the measured clearance for C[C@@H](c1ccccc1)n1c(CNC(=O)[C@@H](Cc2ccccc2C(F)(F)F)NC(=O)OC(C)(C)C)nc2cccnc21 ?
21

Reference source for all entries: ChEMBL document CHEMBL1141499
